Source of measurements: patent US20250034594A1

tested on: gene editing with Cas9; assay: Screen of 322 new SSAP proteins, gene editing activity with Cas9 (Table 5); assay type: cell-based; conditions: normalized
For each entry below, report its Cas9 with SSAP activity (normalized) value.
// return just the number, without any unit appended

Form field Cas9 with SSAP activity (normalized), entry SSAP_264: SEQ ID NO: 433; Cereibacter johrii (protein, listed as Cereibacter johrii) TENTAQAPAAARQLTPIQAISQTLESDAFAPKISASLDGTGISPARFKRAALACLSRPEASYLVEKCDRGSIFTAVMNAAAAELELHPALGQAYIVPRGGQAVLQVGYKGFIALASRAGLAVEADVIYAGDRFSIRKGTNPDVSVEPELDPAKRGEWVAVYVITHYASGAKTLTFMTRAEVEAIRNRYSDAYKRGGAGAKTWNESPEEMAKKTCIRRASKLWPISVPGGGDDDGGEVIEADPAPVPAPRMRDVTPGGGLDRLAASL : 0.375

Form field Cas9 with SSAP activity (normalized), entry SSAP_27: SEQ ID NO: 196 (protein) SNNQLSTQQAKRDIAIDTSVWTFQDVKRYFDPQNLLTEKQVGQALSLIKGRNLNPLANEVYIVAYKKKTGGTEFSLIVSKEAFLKRAAQNPNYEGFEAGVVTVDTDGVMHERKGALMLPGDTLVGGWARVYRKNFKVPVEIFVSREEYDKKQSTWNAMPATMIRKTALVNALREAFPEDLGNMYTEDDGGETFDRIKQAEPVESREDVMARKMAQIEQMKQEQAQRQIDTSYPTDDVIDPDDEPAQGELLEDLEY : −0.956

Form field Cas9 with SSAP activity (normalized), entry SSAP_128: SEQ ID NO: 297; Viridibacillus sp. FSL H8-0123 (protein, listed as Viridibacillus sp.) ATNNALKEQMKQAPSKEVKPEQSLNTLLKRMGPEIQRALPKHMDADRIARIALTAVRNTPKLLDCDQMSFVAALMQSAQLGVEPNTGLGQAYLIPYGKQVQFQLGYKGLIDLAVRSGQYKAIYAHEVYEDDEFSFAYGLHKDLVHVPAPNPTGEPIGYYAVYHLQNGGYDFVYWTRERIDQHAHKFSMAVQKGWTSPWKTNFDAMAKKTVLKEVLKYAPKSIEMQKVVDADETVKTDVSDDMSNVIDVTDYTVMDQEQETIQEPTK : 0.272

Form field Cas9 with SSAP activity (normalized), entry SSAP_255: SEQ ID NO: 424; Bacteroides eggerthii (protein, listed as Bacteroides eggerthii) GTVTTVPQLKSMLANENVKSRFKEILGKKAPGFISSIVAVANSNTLLQKAEPQSIMNAAVIAATLDLPINPNLGFAYIIPYGNQASFQIGYKGMTQLAMRSGQYKTINVTEVYEGEIKSENRFTGEYTFGERKSDKIVGYMAYFSLTNGFEKYMYMSREECEKHGKKFSQTYKRGGGLWATDFDSMSKKTVLKMLISKYGILSIDMQRAQTFDQAVVKDDLVEKNIDEAEVSYEDNPTNADVRRNAMKEALEEAEVVDETTGEIFNQPAQ : −0.044

Form field Cas9 with SSAP activity (normalized), entry SSAP_165: SEQ ID NO: 334; Robinsoniella sp. KNHs210 (protein, listed as Robinsoniella sp.) TTRTGNIKEELAKKAEGTNGDTRLTKAMSIADLIKAMEPEIKKALPEVITPERFTRMALSALNTTPKLRECTQISFLAAMMNAAQLGLEPNTPLGQAYLIPFNNKGTMECQFQIGYKGMIDLSYRNPQMQMISAQAVYENDEFKYELGLNPTLIHRPVLRGRGEVILFYGLFKLTNGGYGFEVMSKEEMDAYAKAYSKAIDSSFSPWKSNYNGMAKKTVIKQVLKYAPIKADFRKALSSDETIKNEISENMSEIHGEIIFDTDYMEESA : −0.925

Form field Cas9 with SSAP activity (normalized), entry SSAP_129: SEQ ID NO: 298; Lacrimispora indolis (protein, listed as Lacrimispora indolis) SDVKQELEKRAAGGGGQSQSVRLTKNMTIVDMVKALEPEIKRALPSILTPERFTRMALSAINNTPKLGECTPMSFIAALMNAAQLGLEPNTPLGQAYLIPYKNKGVLECQFQLGYRGLIDLAYRNERMQSVEAQVVYENDEFSYELGLHPSLIHRPSFDEPGEIRAFYAIFRLDNGGFRFEVMSKSYVDAYAARYSKAFTSDFSPWKSNYEGMAKKTVIKQLLKYAPMKSEFQKAVTMDETIKTELSVDMSEVSNQEVIDRELTEQVA : 0.019

Form field Cas9 with SSAP activity (normalized), entry SSAP_199: SEQ ID NO: 368; uncultured Mediterranean phage uvMED (protein, uncultured Mediterranean phage uvMED) TSSITPLVAMQGTLEKMADKFTEALPRQMDVNKFISVAKLTLNKNPRLLQADKTSLMQTFMKAAQDGLYLDGKEAAAVQYGQSVQYIPMVEGIIKVLHNSGLIKTISAEVVYENDFFDYELGTAPKITHKPLIVGDRGKPMCVYAVAITTNDGEYYEVMNMDQINQCRQVSKASSSPHSPWVKWFDQMAKKTVIHRIAKRLPKNDAINSVVTVDDEPNFQQAVNVTPSEPKDSLSRLRDSIGMEGKDVEQAANDLLEKYNKEAREE : −1.400

Form field Cas9 with SSAP activity (normalized), entry SSAP_172: SEQ ID NO: 341; Staphylococcus pettenkoferi (protein, listed as Staphylococcus pettenkoferi) ATQKDFKNQISQKETQQKQEVQKKKKGPRQQVSDLLDRMAPEIEKALPNHLSADRMARVAMTAVSSNPKLLECDPKSFIGAVMQSAQLGLEPNTALGEAYLVPYAGKVNFQLSYLGLINLATRSGQYKAIYAHEVYAEDEFRYQYGLHKDLIHKPVDNPKGKPIGYYAVYHLLNGGYDFVYWTTERIQKHAKKYSFAVQKGYQSPWNDEFDAMAKKTVLKDLLKYAPKSIEMNNAVRSDDKQSELSDEGVVIDVTNYDEENGEEK : −0.702
